Known viability, T/C of a selection of compounds
tested on: 596521-263-R-J1-PDC complex spheroid growth; assay: Anticancer human tumor 596521-263-R-J1-PDC patient-derived soft tissue sarcoma cell line growth inhibition [Asc]; conditions: second compound 0.3 µM; first compound 0.00316 µM; active compounds read low
Field: numeric (%). Do not append units.

compound	result units	viability, T/C
Cn1ncnc1[C@H]1c2n[nH]c(=O)c3cc(F)cc(c23)N[C@@H]1c1ccc(F)cc1 + CCN1C(C(=O)NC23CCC(C(=O)O)(CC2)CC3)C(c2cccc(Cl)c2F)C2(C(=O)Nc3cc(Cl)ccc32)C12CCCCC2	%	110

Find the recorded viability, T/C belonging to COc1c(OCCCN2CCOCC2)ccc2c3n(c(=NC(=O)c4cnc(N)nc4)nc12)CCN3 + CCN1C(C(=O)NC23CCC(C(=O)O)(CC2)CC3)C(c2cccc(Cl)c2F)C2(C(=O)Nc3cc(Cl)ccc32)C12CCCCC2 and report it.
99.9

What value of viability, T/C has been reported for the following compound? O=C(c1ccc(F)c(F)c1Nc1ccc(I)cc1F)N1CC(O)([C@@H]2CCCCN2)C1 + CCN1C(C(=O)NC23CCC(C(=O)O)(CC2)CC3)C(c2cccc(Cl)c2F)C2(C(=O)Nc3cc(Cl)ccc32)C12CCCCC2
119

Look up viability, T/C for this compound: CCN1CCN(Cc2ccc(Nc3ncc(F)c(-c4cc(F)c5nc(C)n(C(C)C)c5c4)n3)nc2)CC1 + CCN1C(C(=O)NC23CCC(C(=O)O)(CC2)CC3)C(c2cccc(Cl)c2F)C2(C(=O)Nc3cc(Cl)ccc32)C12CCCCC2
97.1

Reported viability, T/C, compound CNC(C)C(=O)NC1CN(S(=O)(=O)c2cccc(S(=O)(=O)N3CCC4CCC(C(=O)NC(c5ccccc5)c5ccccc5)N4C(=O)C(NC(=O)C(C)NC)C3)c2)CCC2CCC(C(=O)NC(c3ccccc3)c3ccccc3)N2C1=O (stereo unspecified) + CCN1C(C(=O)NC23CCC(C(=O)O)(CC2)CC3)C(c2cccc(Cl)c2F)C2(C(=O)Nc3cc(Cl)ccc32)C12CCCCC2 : ____
104

Fill in: viability, T/C of NC1CCC(NC2CC2c2ccccc2)CC1 (stereo unspecified) + CCN1C(C(=O)NC23CCC(C(=O)O)(CC2)CC3)C(c2cccc(Cl)c2F)C2(C(=O)Nc3cc(Cl)ccc32)C12CCCCC2 is ___
80.7

====

system: 596521-263-R-J1-PDC complex spheroid growth; assay: Anticancer human tumor 596521-263-R-J1-PDC cell line growth inhibition [Asc]; conditions: second compound 1 µM; first compound 0.0316 µM; active compounds read low;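 note: spheroids exposed to compounds for 7 days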
Recorded viability, T/C by entry

Known results for molecules:
molecule	viability, T/C
CNC(C)C(=O)NC1CN(S(=O)(=O)c2cccc(S(=O)(=O)N3CCC4CCC(C(=O)NC(c5ccccc5)c5ccccc5)N4C(=O)C(NC(=O)C(C)NC)C3)c2)CCC2CCC(C(=O)NC(c3ccccc3)c3ccccc3)N2C1=O (configuration not stated) + Cc1c(S(C)(=O)=O)c(-c2cc(F)cc(N3CCN(c4ccc(NS(=O)(=O)c5ccc(NC(CCN6CCC(C(=O)OCCCP(=O)(O)O)CC6)CSc6ccccc6)c(S(=O)(=O)C(F)(F)F)c5)cc4)CC3)c2)c(-c2ccc(Cl)cc2)n1C(C)C	63.9%
O=C(c1ccc(F)c(F)c1Nc1ccc(I)cc1F)N1CC(O)([C@@H]2CCCCN2)C1 + Cc1c(S(C)(=O)=O)c(-c2cc(F)cc(N3CCN(c4ccc(NS(=O)(=O)c5ccc(NC(CCN6CCC(C(=O)OCCCP(=O)(O)O)CC6)CSc6ccccc6)c(S(=O)(=O)C(F)(F)F)c5)cc4)CC3)c2)c(-c2ccc(Cl)cc2)n1C(C)C	84.8%
Cn1ncnc1[C@H]1c2n[nH]c(=O)c3cc(F)cc(c23)N[C@@H]1c1ccc(F)cc1 + CNC(C)C(=O)NC1CN(S(=O)(=O)c2cccc(S(=O)(=O)N3CCC4CCC(C(=O)NC(c5ccccc5)c5ccccc5)N4C(=O)C(NC(=O)C(C)NC)C3)c2)CCC2CCC(C(=O)NC(c3ccccc3)c3ccccc3)N2C1=O	64.1%

So what does the record say about viability, T/C for O=C(c1cc(Cc2n[nH]c(=O)c3ccccc23)ccc1F)N1CCN(C(=O)C2CC2)CC1 + CNC(C)C(=O)NC1CN(S(=O)(=O)c2cccc(S(=O)(=O)N3CCC4CCC(C(=O)NC(c5ccccc5)c5ccccc5)N4C(=O)C(NC(=O)C(C)NC)C3)c2)CCC2CCC(C(=O)NC(c3ccccc3)c3ccccc3)N2C1=O ?
68.7%

Param item = O=C(c1ccc(F)c(F)c1Nc1ccc(I)cc1F)N1CC(O)([C@@H]2CCCCN2)C1 + CNC(C)C(=O)NC1CN(S(=O)(=O)c2cccc(S(=O)(=O)N3CCC4CCC(C(=O)NC(c5ccccc5)c5ccccc5)N4C(=O)C(NC(=O)C(C)NC)C3)c2)CCC2CCC(C(=O)NC(c3ccccc3)c3ccccc3)N2C1=O ; retrieve measured viability, T/C.
74.2%

Could you tell me which viability, T/C is on file for C=CC(=O)N1CCN(c2nc(=O)n(-c3c(C)ccnc3C(C)C)c3nc(-c4c(O)cccc4F)c(F)cc23)C(C)C1 (configuration not stated) + Cc1c(S(C)(=O)=O)c(-c2cc(F)cc(N3CCN(c4ccc(NS(=O)(=O)c5ccc(NC(CCN6CCC(C(=O)OCCCP(=O)(O)O)CC6)CSc6ccccc6)c(S(=O)(=O)C(F)(F)F)c5)cc4)CC3)c2)c(-c2ccc(Cl)cc2)n1C(C)C ?
82.3%

// lookup viability, T/C for C=C(F)C(=O)N1CCN(c2nc(OCC3CCCN3C)nc3c2CCN(c2cccc4cccc(Cl)c24)C3)CC1CC#N (configuration not stated) + Cc1c(S(C)(=O)=O)c(-c2cc(F)cc(N3CCN(c4ccc(NS(=O)(=O)c5ccc(NC(CCN6CCC(C(=O)OCCCP(=O)(O)O)CC6)CSc6ccccc6)c(S(=O)(=O)C(F)(F)F)c5)cc4)CC3)c2)c(-c2ccc(Cl)cc2)n1C(C)C
84.3%
